- TARGET ENTITY: human PAH with the R408W mutation (A375 R408W cells) (Homo sapiens, UniProt P00439, R408W)
- Construct: expressed in transfected cells
- Sequence (P00439 whole entry R408W): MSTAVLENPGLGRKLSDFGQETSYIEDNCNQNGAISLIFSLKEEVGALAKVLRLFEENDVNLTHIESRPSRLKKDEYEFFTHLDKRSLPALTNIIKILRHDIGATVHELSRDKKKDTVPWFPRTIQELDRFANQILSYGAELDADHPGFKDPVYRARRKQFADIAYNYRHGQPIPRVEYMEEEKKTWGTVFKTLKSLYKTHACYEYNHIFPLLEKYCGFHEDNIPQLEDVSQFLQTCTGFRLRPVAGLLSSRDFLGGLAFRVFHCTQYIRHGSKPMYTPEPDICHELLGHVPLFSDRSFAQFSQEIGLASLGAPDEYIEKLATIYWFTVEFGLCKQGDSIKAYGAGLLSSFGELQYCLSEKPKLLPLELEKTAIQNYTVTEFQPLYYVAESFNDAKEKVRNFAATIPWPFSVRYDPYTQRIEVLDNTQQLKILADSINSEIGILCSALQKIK
- RUN DESCRIPTION: Cell Based Phenylalanine Flux Assay
- REPORTED CONDITIONS: A375 R408W cells; 24 hrs with compound, then 20 μM sepiapterin and 800 μM 13C9,15N-Phenylalanine for 4 hours; 13C-Tyrosine by LC-MS; average where tested multiple times
PROPERTY LABEL: AC50

Known AC50 results, listed for orientation:
GET /values?readout=AC50&item= "O=C(c1ocnc1C(F)F)N1CCc2[nH]cnc2[C@@H]1c1nc2ccc(F)c(F)c2o1"
1000 to 5000 nM

GET /values?readout=AC50&item= "O=C([C@@H]1CC1(F)F)N1CCc2[nH]cnc2[C@H]1c1nc2cc(F)ccc2o1"
500 to 1000 nM

GET /values?readout=AC50&item= "C[C@H](O)c1nc(C(F)F)c(C(=O)N2CCc3[nH]cnc3[C@H]2c2nc3c(F)cccc3o2)o1"
≤ 500 nM

GET /values?readout=AC50&item= "Cc1ccc2nc([C@H]3c4nc[nH]c4CCN3C(=O)c3nnc(-c4cnn(C(F)F)c4)o3)oc2c1"
≥ 5000 nM

Others:
GET /values?readout=AC50&item= "CC(C)(O)c1nc(C(F)F)c(C(=O)N2CCc3[nH]cnc3[C@@H]2c2nc3c(Br)cccc3o2)o1"
≤ 500 nM

GET /values?readout=AC50&item= "CN1CCN(c2cn3ncc(C(=O)N4CCc5[nH]cnc5[C@@H]4c4nc5cc(F)ccc5o4)c3cc2Cl)CC1"
1000 to 5000 nM

GET /values?readout=AC50&item= "Cn1nc(C(F)(F)F)nc1C(=O)N1CCc2[nH]cnc2[C@H]1c1nc2cccc(F)c2o1"
500 to 1000 nM
